The entries below are paired with their reported Activity.
Biological target: Transthyretin (Homo sapiens, UniProt P02766)
Assay: Inhibition of transthyretin amyloidosis assessed as fibril formation at 7.2 uM at pH 4.4 relative to control
Type: functional
Design: scale not given: the % may be the effect or the level left
Kindly answer with a numeric value in %, unit omitted.

[
  {
    "Smiles Structure": "O=Cc1ccc(Oc2ccc(Cl)cc2Cl)c(O)c1",
    "Output Unit": "%",
    "Activity": 0
  },
  {
    "Smiles Structure": "O=C(O)c1ccc(Oc2ccc(Cl)cc2Cl)c(O)c1",
    "Output Unit": "%",
    "Activity": 29
  },
  {
    "Smiles Structure": "Oc1cc(Cl)ccc1Oc1ccc(Cl)cc1Cl",
    "Output Unit": "%",
    "Activity": 75
  }
]

Reported Activity for Transthyretin (Homo sapiens, UniProt P02766), given N[C@H](Cc1cc(I)c(Oc2cc(I)c(O)c(I)c2)c(I)c1)C(=O)O ?
48

Reported Activity for Transthyretin (Homo sapiens, UniProt P02766), given OCc1ccc(Oc2ccc(Cl)cc2Cl)c(O)c1 ?
12

Reported Activity for Transthyretin (Homo sapiens, UniProt P02766), given COc1cc(C(=O)O)ccc1Oc1ccc(Cl)cc1Cl ?
10
